measurement_target: Dual specificity protein kinase CLK4 (Homo sapiens)
Sequence (Q9HAZ1 whole entry): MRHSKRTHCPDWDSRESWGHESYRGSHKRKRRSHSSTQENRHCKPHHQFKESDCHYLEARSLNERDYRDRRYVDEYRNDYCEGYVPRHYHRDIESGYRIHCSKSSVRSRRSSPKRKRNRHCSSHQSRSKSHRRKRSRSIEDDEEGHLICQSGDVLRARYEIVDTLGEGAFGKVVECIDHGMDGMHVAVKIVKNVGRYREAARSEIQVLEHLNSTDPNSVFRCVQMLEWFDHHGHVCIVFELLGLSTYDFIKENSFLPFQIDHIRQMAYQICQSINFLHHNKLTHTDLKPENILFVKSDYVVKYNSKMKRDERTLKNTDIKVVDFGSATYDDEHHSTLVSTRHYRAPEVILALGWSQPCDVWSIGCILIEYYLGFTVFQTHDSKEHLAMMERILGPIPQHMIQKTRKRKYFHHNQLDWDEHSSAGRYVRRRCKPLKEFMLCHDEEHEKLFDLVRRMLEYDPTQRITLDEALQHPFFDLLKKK
measure_name: pIC50
Hey, just a heads up that pIC50 is the negative log base 10 of the concentration in molar.

Reported pIC50, compound Cc1nn(C)c2c1/C=C/c1n[nH]c3ccc(cc13)-c1c(C)nn(C)c1OCCN(C)C2 : ____
8.57

###

Measured log10 IC50, listed per entry for reference.
measurement_target: Epidermal growth factor receptor [L858R] (Homo sapiens, UniProt P00533, L858R)
Sequence (P00533 25-1210 L858R limits assumed): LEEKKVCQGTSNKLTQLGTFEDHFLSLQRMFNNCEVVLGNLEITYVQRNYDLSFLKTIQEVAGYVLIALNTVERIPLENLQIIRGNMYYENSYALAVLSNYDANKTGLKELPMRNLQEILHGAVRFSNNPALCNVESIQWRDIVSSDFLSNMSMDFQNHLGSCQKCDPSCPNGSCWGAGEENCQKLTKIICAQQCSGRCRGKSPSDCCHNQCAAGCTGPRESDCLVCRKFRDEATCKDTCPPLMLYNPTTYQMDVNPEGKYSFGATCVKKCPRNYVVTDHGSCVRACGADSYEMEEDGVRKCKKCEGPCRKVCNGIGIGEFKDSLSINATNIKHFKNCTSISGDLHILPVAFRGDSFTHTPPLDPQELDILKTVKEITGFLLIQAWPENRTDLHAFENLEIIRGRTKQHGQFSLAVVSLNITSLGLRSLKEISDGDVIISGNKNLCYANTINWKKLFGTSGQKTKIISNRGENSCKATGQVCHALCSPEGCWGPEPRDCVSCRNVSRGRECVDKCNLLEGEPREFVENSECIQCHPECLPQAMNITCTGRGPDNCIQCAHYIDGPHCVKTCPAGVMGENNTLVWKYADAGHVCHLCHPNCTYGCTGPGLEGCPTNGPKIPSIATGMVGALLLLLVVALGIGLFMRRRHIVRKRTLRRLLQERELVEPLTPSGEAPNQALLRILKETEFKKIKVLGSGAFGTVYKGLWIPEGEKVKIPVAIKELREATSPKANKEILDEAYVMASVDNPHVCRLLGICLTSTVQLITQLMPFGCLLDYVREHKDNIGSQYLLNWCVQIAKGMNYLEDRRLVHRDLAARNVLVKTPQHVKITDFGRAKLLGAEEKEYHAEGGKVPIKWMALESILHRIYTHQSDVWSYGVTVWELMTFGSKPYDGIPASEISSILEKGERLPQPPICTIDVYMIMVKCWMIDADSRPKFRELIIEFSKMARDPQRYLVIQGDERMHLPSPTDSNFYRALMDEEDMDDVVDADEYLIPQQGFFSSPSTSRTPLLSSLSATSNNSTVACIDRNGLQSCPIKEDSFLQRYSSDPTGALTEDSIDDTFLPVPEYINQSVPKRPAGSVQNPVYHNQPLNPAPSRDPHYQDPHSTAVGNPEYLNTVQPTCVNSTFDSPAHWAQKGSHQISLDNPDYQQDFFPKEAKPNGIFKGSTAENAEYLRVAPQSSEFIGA
assay_protocol: Biochemical Assays for Inhibition of Wild-Type and Mutant EGFRs
Values are log10 of IC50 in nM.

Cc1nn(C)c2c1/C=C/c1n[nH]c3ccc(cc13)-c1c(C)nn(C)c1OCCN(C)C2 | 2.91
Cc1nn(C)c2c1/C=C/c1n[nH]c3ccc(cc13)-c1cnn(C)c1CN(C)C[C@H](C)O2 (single isomer, unassigned) | 2.12
Cc1c2c(nn1CCN1CCCC1)OCCOC(C)c1c(cnn1C)-c1ccc3[nH]nc(c3c1)/C=C/2 (stereo not drawn) | 2.45
Cc1ccc2c(n1)/C=C/c1n[nH]c3ccc(cc13)-c1cnn(C)c1O[C@@H](C)CCO2 | 2.35
Cc1c2c(nn1[C@H]1CCN(C)C[C@@H]1O)OCCCOc1c(cnn1C)-c1ccc3[nH]nc(c3c1)/C=C/2 (racemic) | 1.28

What reported log10 IC50 corresponds to CCc1nn(C)c2c1/C=C/c1n[nH]c3ccc(cc13)-c1cnn(C)c1OCCCO2 on Epidermal growth factor receptor [L858R] (Homo sapiens, UniProt P00533, L858R)?
2.26

Next: Cc1c2c(nn1CCN1CCCC1)CN(C)C[C@H](C)Oc1c(cnn1C)-c1ccc3[nH]nc(c3c1)/C=C/2
0.67

Next: CCOc1nn(CCO)c2c1/C=C/c1n[nH]c3ccc(cc13)-c1cnn(C)c1OC1CCCN(C2)C1C (stereo not drawn)
2.09

###

measurement_target: Epidermal growth factor receptor [T790M,L858R] (Homo sapiens, UniProt P00533, L858R/T790M)
Sequence (P00533 25-1210 T790M/L858R limits assumed): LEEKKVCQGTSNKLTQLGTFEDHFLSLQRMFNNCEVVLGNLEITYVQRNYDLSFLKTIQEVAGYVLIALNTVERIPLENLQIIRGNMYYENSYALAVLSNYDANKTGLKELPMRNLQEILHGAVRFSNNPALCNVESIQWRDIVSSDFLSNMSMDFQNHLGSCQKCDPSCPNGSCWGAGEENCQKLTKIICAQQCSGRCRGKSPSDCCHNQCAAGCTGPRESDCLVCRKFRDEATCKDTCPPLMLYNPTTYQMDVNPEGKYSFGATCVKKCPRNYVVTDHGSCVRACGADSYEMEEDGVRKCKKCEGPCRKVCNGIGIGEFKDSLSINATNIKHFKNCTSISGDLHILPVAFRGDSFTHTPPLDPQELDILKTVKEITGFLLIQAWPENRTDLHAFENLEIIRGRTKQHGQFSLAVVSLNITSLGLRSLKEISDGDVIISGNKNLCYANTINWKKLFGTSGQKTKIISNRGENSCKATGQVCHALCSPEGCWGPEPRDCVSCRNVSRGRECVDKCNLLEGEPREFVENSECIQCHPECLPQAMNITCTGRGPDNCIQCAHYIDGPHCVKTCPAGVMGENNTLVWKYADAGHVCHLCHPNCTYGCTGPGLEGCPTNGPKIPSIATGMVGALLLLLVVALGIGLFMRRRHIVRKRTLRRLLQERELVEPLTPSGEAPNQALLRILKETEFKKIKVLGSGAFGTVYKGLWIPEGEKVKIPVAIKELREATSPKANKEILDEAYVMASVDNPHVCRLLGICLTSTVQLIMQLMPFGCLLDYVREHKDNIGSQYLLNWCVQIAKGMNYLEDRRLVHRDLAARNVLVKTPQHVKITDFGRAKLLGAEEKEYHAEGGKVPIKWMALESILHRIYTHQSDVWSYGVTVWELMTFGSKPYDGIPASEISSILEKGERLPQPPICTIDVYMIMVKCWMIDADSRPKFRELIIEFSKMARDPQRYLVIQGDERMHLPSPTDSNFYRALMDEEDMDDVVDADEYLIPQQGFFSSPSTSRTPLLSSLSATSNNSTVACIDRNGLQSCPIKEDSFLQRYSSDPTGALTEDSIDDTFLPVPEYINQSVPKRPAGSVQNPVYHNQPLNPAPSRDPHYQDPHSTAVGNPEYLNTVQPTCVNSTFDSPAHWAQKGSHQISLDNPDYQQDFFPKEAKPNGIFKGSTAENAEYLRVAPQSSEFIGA
assay_protocol: Biochemical Assays for Inhibition of Wild-Type and Mutant EGFRs
pIC50: −log10 of the molar value.
Lab note: anything with pIC50 at or over 8 counts as Yes; the rest go in No.

Sample answers from the record:
Cc1nn(C)c2c1/C=C/c1n[nH]c3ccc(cc13)-c1c(C)nn(C)c1OCCN(C)C2 [US20250353864, Example 47] | No
Cc1c2c(nn1[C@H]1CCN(C)C[C@@H]1O)OCCCOc1c(cnn1C)-c1ccc3[nH]nc(c3c1)/C=C/2 (racemic) [US20250353864, Example 83] | Yes
Cc1c2c(nn1CCN1CCCC1)CN(C)C[C@H](C)Oc1c(cnn1C)-c1ccc3[nH]nc(c3c1)/C=C/2 [US20250353864, Example 89] | Yes

Does the reported pIC50 for Cc1c2c(nn1CCN1CCCC1)OCCOC(C)c1c(cnn1C)-c1ccc3[nH]nc(c3c1)/C=C/2 (stereo unspecified) [US20250353864, Example 84] fall at or above the 8 mark?
No
